Listed compounds paired with reported viability, T/C
System: 186277-243-T-J2-PDC complex spheroid viability
Test: Anticancer human tumor 186277-243-T-J2-PDC patient-derived colon adenocarcinoma cell line growth inhibition [GQUAD]
Conditions: second compound 10 µM; first compound 1 µM; stronger effect = lower value
experimental.endpoint: viability, T/C (%)

• C#Cc1c(F)ccc2cc(O)cc(-c3ncc4c(N5CC6CCC(C5)N6)nc(OCC56CCCN5CC(F)C6)nc4c3F)c12 (stereo not given) + Cc1cnc(CNC(=O)c2c(=O)c3ccc(N4CCCN(C)CC4)nc3n3c2sc2ccccc23)cn1 = 0.27
• Nc1ccn(C2OC(CO)C(O)C2(F)F)c(=O)n1 (stereo not given) + CN(C)c1ccc(Nc2c3ccc(NC(=O)CCN4CCCC4)cc3nc3cc(NC(=O)CCN4CCCC4)ccc23)cc1 = 6.96
• C=CC(=O)N1CCN(c2nc(=O)n(-c3c(C)ccnc3C(C)C)c3nc(-c4c(O)cccc4F)c(F)cc23)C(C)C1 (stereo not given) + Cc1[nH]c2ccc(F)cc2c1-c1nc2c3cccnc3c3ncccc3c2[nH]1 = 109
• CC(C)n1c(=O)n(C)c2cnc3cc(F)c(-c4ccc(OCCCN5CCCCC5)nc4)cc3c21 + CN(C)c1ccc(Nc2c3ccc(NC(=O)CCN4CCCC4)cc3nc3cc(NC(=O)CCN4CCCC4)ccc23)cc1 = 88.8
• CC(=O)O[C@H]1C(=O)[C@@]2(C)[C@H]([C@H](OC(=O)c3ccccc3)[C@]3(O)C[C@H](OC(=O)[C@H](O)[C@@H](NC(=O)c4ccccc4)c4ccccc4)C(C)=C1C3(C)C)[C@]1(OC(C)=O)CO[C@@H]1C[C@@H]2O + CN(C)c1ccc(Nc2c3ccc(NC(=O)CCN4CCCC4)cc3nc3cc(NC(=O)CCN4CCCC4)ccc23)cc1 = 3.44
• CC1COCCN1c1cc(C2(S(C)(=N)=O)CC2)nc(-c2ccnc3[nH]ccc23)n1 (stereo not given) + Cc1cnc(CNC(=O)c2c(=O)c3ccc(N4CCCN(C)CC4)nc3n3c2sc2ccccc23)cn1 = 37
• COc1ncnc(C2CC2)c1-c1ncc2cnn(Cc3ccc(-c4nc(C(F)(F)F)cn4C(C)C)cc3)c2n1 + CN(C)c1ccc(Nc2c3ccc(NC(=O)CCN4CCCC4)cc3nc3cc(NC(=O)CCN4CCCC4)ccc23)cc1 = 99.2
• COc1ccc([C@@H](O)c2cc(-c3ncnc4cc(N5CCOCC5)ccc34)c(F)cc2Cl)nn1 + Cc1cnc(CNC(=O)c2c(=O)c3ccc(N4CCCN(C)CC4)nc3n3c2sc2ccccc23)cn1 = 34.5
• CC1COCCN1c1cc(-c2ccnn2C)c2ccnc(-c3ccn[nH]3)c2n1 (stereo not given) + Cc1[nH]c2ccc(F)cc2c1-c1nc2c3cccnc3c3ncccc3c2[nH]1 = 5.7
• O=c1[nH]cc(F)c(=O)[nH]1 + Cc1cnc(CNC(=O)c2c(=O)c3ccc(N4CCCN(C)CC4)nc3n3c2sc2ccccc23)cn1 = 53.3

====

Test system: 186277-243-T-J2-PDC complex spheroid viability
Test: Anticancer human tumor 186277-243-T-J2-PDC cell line growth inhibition [GQUAD]; active = viability on the fitted dose curve at most 10% of control; inactive = the rest;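 also: spheroids exposed to drugs for 7 days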
Details: second compound 0.1 µM; first compound 0.1 µM
Outcomes: active, inactive

- C=CC(=O)N1CCN(c2nc(=O)n(-c3c(C)ccnc3C(C)C)c3nc(-c4c(O)cccc4F)c(F)cc23)C(C)C1 (stereo unspecified) + Cc1[nH]c2ccc(F)cc2c1-c1nc2c3cccnc3c3ncccc3c2[nH]1: inactive
- Nc1ccn(C2OC(CO)C(O)C2(F)F)c(=O)n1 (stereo unspecified) + CN(C)c1ccc(Nc2c3ccc(NC(=O)CCN4CCCC4)cc3nc3cc(NC(=O)CCN4CCCC4)ccc23)cc1: active
- C#Cc1c(F)ccc2cc(O)cc(-c3ncc4c(N5CC6CCC(C5)N6)nc(OCC56CCCN5CC(F)C6)nc4c3F)c12 (stereo unspecified) + CN(C)c1ccc(Nc2c3ccc(NC(=O)CCN4CCCC4)cc3nc3cc(NC(=O)CCN4CCCC4)ccc23)cc1: inactive
- CC(C)n1c(=O)n(C)c2cnc3cc(F)c(-c4ccc(OCCCN5CCCCC5)nc4)cc3c21 + Cc1cnc(CNC(=O)c2c(=O)c3ccc(N4CCCN(C)CC4)nc3n3c2sc2ccccc23)cn1: inactive
- CCCS(=O)(=O)Nc1ccc(F)c(C(=O)c2c[nH]c3ncc(-c4ccc(Cl)cc4)cc23)c1F + CN(C)c1ccc(Nc2c3ccc(NC(=O)CCN4CCCC4)cc3nc3cc(NC(=O)CCN4CCCC4)ccc23)cc1: inactive
- C=CC(=O)N1CCN(c2nc(=O)n(-c3c(C)ccnc3C(C)C)c3nc(-c4c(O)cccc4F)c(F)cc23)C(C)C1 (stereo unspecified) + Cc1cnc(CNC(=O)c2c(=O)c3ccc(N4CCCN(C)CC4)nc3n3c2sc2ccccc23)cn1: inactive
- COc1ncnc(C2CC2)c1-c1ncc2cnn(Cc3ccc(-c4nc(C(F)(F)F)cn4C(C)C)cc3)c2n1 + CN(C)c1ccc(Nc2c3ccc(NC(=O)CCN4CCCC4)cc3nc3cc(NC(=O)CCN4CCCC4)ccc23)cc1: inactive
- O=c1[nH]cc(F)c(=O)[nH]1 + CN(C)c1ccc(Nc2c3ccc(NC(=O)CCN4CCCC4)cc3nc3cc(NC(=O)CCN4CCCC4)ccc23)cc1: inactive
- CC1COCCN1c1cc(C2(S(C)(=N)=O)CC2)nc(-c2ccnc3[nH]ccc23)n1 (stereo unspecified) + Cc1cnc(CNC(=O)c2c(=O)c3ccc(N4CCCN(C)CC4)nc3n3c2sc2ccccc23)cn1: inactive
- COc1ncnc(C2CC2)c1-c1ncc2cnn(Cc3ccc(-c4nc(C(F)(F)F)cn4C(C)C)cc3)c2n1 + Cc1cnc(CNC(=O)c2c(=O)c3ccc(N4CCCN(C)CC4)nc3n3c2sc2ccccc23)cn1: inactive
- COc1ccc([C@@H](O)c2cc(-c3ncnc4cc(N5CCOCC5)ccc34)c(F)cc2Cl)nn1 + CN(C)c1ccc(Nc2c3ccc(NC(=O)CCN4CCCC4)cc3nc3cc(NC(=O)CCN4CCCC4)ccc23)cc1: inactive

====

System: 186277-243-T-J2-PDC complex spheroid viability
Assay: Anticancer human tumor 186277-243-T-J2-PDC cell line growth inhibition [GQUAD];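 also: spheroids exposed to drugs for 7 days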
Details: curve of first compound; second compound 0.1 µM
Listed compounds paired with reported IC50
experimental.endpoint: IC50 (nM)

• Cc1[nH]c2ccccc2c1CCNCc1ccc(/C=C/C(=O)NO)cc1 + Cc1[nH]c2ccc(F)cc2c1-c1nc2c3cccnc3c3ncccc3c2[nH]1 = 44.2
• CC[C@@]1(O)C(=O)OCc2c1cc1n(c2=O)Cc2cc3c(CN(C)C)c(O)ccc3nc2-1 + CN(C)c1ccc(Nc2c3ccc(NC(=O)CCN4CCCC4)cc3nc3cc(NC(=O)CCN4CCCC4)ccc23)cc1 = 153

====

Test system: 186277-243-T-J2-PDC complex spheroid viability
Assay: Anticancer human tumor 186277-243-T-J2-PDC cell line growth inhibition [GQUAD];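 also: spheroids exposed to drugs for 7 days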;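 as to viability, T/C: 100% = DMSO vehicle control viability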
Conditions: second compound 1 µM; first compound 1 µM; stronger effect = lower value
experimental.endpoint: viability, T/C (%)

• COc1cccc2c1C(=O)c1c(O)c3c(c(O)c1C2=O)CC(O)(C(=O)CO)CC3OC1CC(N)C(O)C(C)O1 (stereo unspecified) + Cc1cnc(CNC(=O)c2c(=O)c3ccc(N4CCCN(C)CC4)nc3n3c2sc2ccccc23)cn1 = 19.9
• C=CC(=O)N1CCN(c2nc(=O)n(-c3c(C)ccnc3C(C)C)c3nc(-c4c(O)cccc4F)c(F)cc23)C(C)C1 (stereo unspecified) + CN(C)c1ccc(Nc2c3ccc(NC(=O)CCN4CCCC4)cc3nc3cc(NC(=O)CCN4CCCC4)ccc23)cc1 = 101
• Nc1ccn(C2OC(CO)C(O)C2(F)F)c(=O)n1 (stereo unspecified) + Cc1[nH]c2ccc(F)cc2c1-c1nc2c3cccnc3c3ncccc3c2[nH]1 = 10.4
• CC(C)(O)C1CCC(Nc2ccc3ncc(-c4cccc(C(F)(F)F)c4)n3n2)CC1 (stereo unspecified) + CN(C)c1ccc(Nc2c3ccc(NC(=O)CCN4CCCC4)cc3nc3cc(NC(=O)CCN4CCCC4)ccc23)cc1 = 92
• CC1COCCN1c1cc(C2(O)CC3CCC(C2)O3)c2cnn(-c3ccn[nH]3)c2n1 (stereo unspecified) + Cc1[nH]c2ccc(F)cc2c1-c1nc2c3cccnc3c3ncccc3c2[nH]1 = 7.77
• CC1COCCN1c1cc(C2(S(C)(=N)=O)CC2)nc(-c2ccnc3[nH]ccc23)n1 (stereo unspecified) + Cc1[nH]c2ccc(F)cc2c1-c1nc2c3cccnc3c3ncccc3c2[nH]1 = 74.2

====

Test system: 186277-243-T-J2-PDC complex spheroid viability
Assay: Anticancer human tumor 186277-243-T-J2-PDC cell line growth inhibition [GQUAD];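 also: spheroids exposed to drugs for 7 days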;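 as to viability, T/C: 100% = DMSO vehicle control viability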
Conditions: second compound 0.0316 µM; first compound 0.316 µM; stronger effect = lower value
Source text: DNA G-quadruplex Stabilizer Agents in Combinations in Complex Spheroids A high-throughput screen of multi-cell type tumor spheroids was designed to identify active combinations of DNA G-quadruplex stabilizer agents and targeted small molecules. […] Compounds. […] If the clinical Cmax for an agent had not been determined, the highest concentration tested was 10 microM. […]
Classification field. Basis: viability, T/C. Definitions: A = under 20%, B = from 20% up to 90%, C = 90% and over

* Cc1[nH]c2ccccc2c1CCNCc1ccc(/C=C/C(=O)NO)cc1 + CN(C)c1ccc(Nc2c3ccc(NC(=O)CCN4CCCC4)cc3nc3cc(NC(=O)CCN4CCCC4)ccc23)cc1 | A
* CCCS(=O)(=O)Nc1ccc(F)c(C(=O)c2c[nH]c3ncc(-c4ccc(Cl)cc4)cc23)c1F + Cc1[nH]c2ccc(F)cc2c1-c1nc2c3cccnc3c3ncccc3c2[nH]1 | C
* CC(C)n1c(=O)n(C)c2cnc3cc(F)c(-c4ccc(OCCCN5CCCCC5)nc4)cc3c21 + Cc1cnc(CNC(=O)c2c(=O)c3ccc(N4CCCN(C)CC4)nc3n3c2sc2ccccc23)cn1 | B
* C#Cc1c(F)ccc2cc(O)cc(-c3ncc4c(N5CC6CCC(C5)N6)nc(OCC56CCCN5CC(F)C6)nc4c3F)c12 (stereo unspecified) + CN(C)c1ccc(Nc2c3ccc(NC(=O)CCN4CCCC4)cc3nc3cc(NC(=O)CCN4CCCC4)ccc23)cc1 | B
* O=C(NO)c1cnc(N2CCN(S(=O)(=O)c3ccc4ccccc4c3)CC2)nc1 + CN(C)c1ccc(Nc2c3ccc(NC(=O)CCN4CCCC4)cc3nc3cc(NC(=O)CCN4CCCC4)ccc23)cc1 | A
* CCc1c2c(nc3ccc(O)cc13)-c1cc3c(c(=O)n1C2)COC(=O)[C@]3(O)CC + CN(C)c1ccc(Nc2c3ccc(NC(=O)CCN4CCCC4)cc3nc3cc(NC(=O)CCN4CCCC4)ccc23)cc1 | A
* CC[C@@]1(O)C(=O)OCc2c1cc1n(c2=O)Cc2cc3c(CN(C)C)c(O)ccc3nc2-1 + CN(C)c1ccc(Nc2c3ccc(NC(=O)CCN4CCCC4)cc3nc3cc(NC(=O)CCN4CCCC4)ccc23)cc1 | B
* CCc1c2c(nc3ccc(O)cc13)-c1cc3c(c(=O)n1C2)COC(=O)[C@]3(O)CC + Cc1[nH]c2ccc(F)cc2c1-c1nc2c3cccnc3c3ncccc3c2[nH]1 | B
* O=C(c1cc(Cc2n[nH]c(=O)c3ccccc23)ccc1F)N1CCN(C(=O)C2CC2)CC1 + CN(C)c1ccc(Nc2c3ccc(NC(=O)CCN4CCCC4)cc3nc3cc(NC(=O)CCN4CCCC4)ccc23)cc1 | C
* CC1COCCN1c1cc(C2(S(C)(=N)=O)CC2)nc(-c2ccnc3[nH]ccc23)n1 (stereo unspecified) + Cc1[nH]c2ccc(F)cc2c1-c1nc2c3cccnc3c3ncccc3c2[nH]1 | C
